Hello, the source for this data is patent US12152038B2, in case you need it.

Each item that follows carries a reported pIC50.
- subject_of_test: human Arginine Vasopressin Receptor 1a (AVPR1a) (Homo sapiens, UniProt P37288)
- Sequence (P37288 whole entry): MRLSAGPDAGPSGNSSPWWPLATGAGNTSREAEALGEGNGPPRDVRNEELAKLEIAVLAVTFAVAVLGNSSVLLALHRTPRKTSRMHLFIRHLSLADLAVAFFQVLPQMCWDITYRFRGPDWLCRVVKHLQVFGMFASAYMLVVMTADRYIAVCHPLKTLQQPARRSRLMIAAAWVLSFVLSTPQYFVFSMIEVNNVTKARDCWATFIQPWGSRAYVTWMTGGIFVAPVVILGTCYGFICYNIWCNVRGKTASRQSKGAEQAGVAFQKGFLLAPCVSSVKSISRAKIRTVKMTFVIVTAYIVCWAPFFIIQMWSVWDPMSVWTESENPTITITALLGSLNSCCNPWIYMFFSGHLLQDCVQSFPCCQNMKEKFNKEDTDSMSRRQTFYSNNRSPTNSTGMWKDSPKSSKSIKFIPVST
- experiment_notes: Vasopressin V1a receptor antagonist assay (FLIPR calcium, CHO-AVPR1a cells)
pIC50: −log10 of the molar value. Structures can show the parent of a compound that is named as a salt.

Example results:
CC1COc2cc(F)c(F)cc2N1C(=O)N1CC2(C1)CN(c1cccnn1)C2 (centres unmarked) [19-3] :: > 7.00
O=C(N1CC2(C1)CN(c1ccc(F)cn1)C2)N1CCc2cc(Cl)ccc21 [8-11] :: > 7.00

Prompt line: Tell me the measured pIC50 of COc1ccnc(N2CC3(CN(C(=O)N4c5ccc(Cl)cc5OCC4C)C3)C2)c1 (single isomer, unassigned) [20-8-A] , please.
Response line: 6.30 to 7.00

Prompt line: Tell me the measured pIC50 of O=C(N1CC2(C1)CN(c1ccccn1)C2)N1CCOc2cc(Cl)ccc21 [8-2] , please.
Response line: > 7.00

Prompt line: Tell me the measured pIC50 of CC1COc2cc(F)ccc2N1C(=O)N1CC2(C1)CN(c1ncccc1F)C2 (single isomer, unassigned) [1-67-A] , please.
Response line: > 7.00

Prompt line: Tell me the measured pIC50 of O=C(N1CC2(C1)CN(c1ccn3ccnc3c1)C2)N1CCOc2cc(Cl)ccc21 [5-1, formate] , please.
Response line: 6.30 to 7.00

Prompt line: Tell me the measured pIC50 of CC1COc2cc(F)c(F)cc2N1C(=O)N1CC2(C1)CN(c1ccc(F)cn1)C2 (single isomer, unassigned) [19-5-B] , please.
Response line: > 7.00

Prompt line: Tell me the measured pIC50 of Cc1cnc(N2CC3(CN(C(=O)N4c5ccc(Cl)cc5OCC4C)C3)C2)cn1 (single isomer, unassigned) [20-5-A] , please.
Response line: > 7.00

* * *

- subject_of_test: UniProt:P30559
- Sequence (P30559 1-389): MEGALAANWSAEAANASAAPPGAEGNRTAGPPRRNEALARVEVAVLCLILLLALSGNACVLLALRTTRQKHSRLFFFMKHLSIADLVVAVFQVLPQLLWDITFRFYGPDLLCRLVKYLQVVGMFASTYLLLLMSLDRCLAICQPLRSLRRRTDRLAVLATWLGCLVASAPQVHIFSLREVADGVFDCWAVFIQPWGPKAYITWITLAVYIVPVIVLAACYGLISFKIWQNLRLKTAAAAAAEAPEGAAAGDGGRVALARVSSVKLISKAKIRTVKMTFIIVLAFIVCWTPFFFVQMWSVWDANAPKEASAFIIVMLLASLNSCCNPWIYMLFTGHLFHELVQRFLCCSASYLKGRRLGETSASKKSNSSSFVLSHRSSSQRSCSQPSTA
- experiment_notes: Oxytocin receptor (OTR) antagonist assay (FLIPR calcium, CHEM-1-hOTR cells)
pIC50: −log10 of the molar value.
measured_quantity: pIC50

Cc1nc(N2CC3(CN(C(=O)N4c5ccc(Cl)cc5OCC4C)C3)C2)ncc1F (single isomer, unassigned) [20-7-B] :: 6.30 to 7.00
CC1COc2cc(F)ccc2N1C(=O)N1CC2(C1)CN(c1ccc(F)cn1)C2 (single isomer, unassigned) [12-1-B] :: 6.30 to 7.00
Cc1ccnc(N2CC3(CN(C(=O)N4c5ccc(Cl)cc5OCC4C)C3)C2)c1 (centres unmarked) :: 6.30 to 7.00

Kindly review the next compound as well.
Prompt line: Tell me the measured pIC50 of CC1COc2cc(Cl)ccc2N1C(=O)N1CC2(C1)CN(c1noc3cccnc13)C2 (centres unmarked) [18-3] , please.
Response line: ≤ 6.00

* * *

- subject_of_test: human Arginine Vasopressin Receptor 1a (AVPR1a) (Homo sapiens, UniProt P37288)
- experiment_notes: Vasopressin V1a receptor antagonist assay (FLIPR calcium, CHO-AVPR1a cells)
pIC50: −log10 of the molar value.
measured_quantity: pIC50

Example results:
CC1COc2cc(F)ccc2N1C(=O)N1CC2(C1)CN(c1cccnn1)C2 (single isomer, unassigned) [1-62-A] :: ≤ 6.00
O=C(N1CC2(C1)CN(c1ncccc1F)C2)N1CCC(O)c2cc(Cl)ccc21 (stereo not shown) [13-4] :: > 7.00
N#Cc1ccnc(N2CC3(CN(C(=O)N4CCOc5cc(Cl)ccc54)C3)C2)c1 :: > 7.00
CC1COc2cc(F)ccc2N1C(=O)N1CC2(C1)CN(c1cnccn1)C2 (single isomer, unassigned) [1-65-B] :: > 7.00
Cc1cncc(N2CC3(CN(C(=O)N4c5ccc(Cl)cc5OCC4C)C3)C2)n1 (stereo not shown) :: > 7.00

Prompt line: Tell me the measured pIC50 of `Cc1nc(N2CC3(CN(C(=O)N4CCOc5cc(Cl)ccc54)C3)C2)ncc1F` , please.
Response line: > 7.00

Prompt line: Tell me the measured pIC50 of CC1COc2cc(Cl)ccc2N1C(=O)N1CC2(C1)CN(c1cnccn1)C2 (single isomer, unassigned) [1-58-A] , please.
Response line: ≤ 6.00

* * *

- experiment_notes: Wild-type MDCK permeability and efflux assay (Papp, efflux ratio)
- Format: in vitro ADME
- test_settings: dog, pH 7.4; Papp B>A/Papp A>B, wild-type MDCK cells; read-out: ER WT (Efflux Ratio)
Each item that follows carries a reported efflux ratio at 1 h, 10 μM.

Example results:
O=C(N1CC2(C1)CN(c1ccc(F)cn1)C2)N1CCC(O)c2cc(Cl)ccc21 (single isomer, unassigned) [13-1-A] :: < 1
O=C(N1CC2(C1)CN(c1ccccn1)C2)N1CCC(O)c2cc(Cl)ccc21 (single isomer, unassigned) :: 1 to 2
COc1ccnc(N2CC3(CN(C(=O)N4c5ccc(Cl)cc5OCC4C)C3)C2)n1 (single isomer, unassigned) [20-9-B] :: < 1
COc1ccnc(N2CC3(CN(C(=O)N4c5ccc(Cl)cc5OCC4C)C3)C2)c1 (stereo not shown) [20-8] :: < 1
Cc1cnc(N2CC3(CN(C(=O)N4c5ccc(Cl)cc5OCC4C)C3)C2)nc1 (single isomer, unassigned) :: < 1

Kindly review the next compound as well.
Prompt line: Tell me the measured efflux ratio at 1 h, 10 μM of CC1COc2cc(Cl)ccc2N1C(=O)N1CC2(C1)CN(c1ncncc1F)C2 (stereo not shown) , please.
Response line: 1 to 2

* * *

- subject_of_test: MDR1 (P-glycoprotein) (Homo sapiens)
- Construct: host or cells: MDCK (MDR1-MDCK; wild-type MDCK as comparator)
- Sequence (P08183 whole entry): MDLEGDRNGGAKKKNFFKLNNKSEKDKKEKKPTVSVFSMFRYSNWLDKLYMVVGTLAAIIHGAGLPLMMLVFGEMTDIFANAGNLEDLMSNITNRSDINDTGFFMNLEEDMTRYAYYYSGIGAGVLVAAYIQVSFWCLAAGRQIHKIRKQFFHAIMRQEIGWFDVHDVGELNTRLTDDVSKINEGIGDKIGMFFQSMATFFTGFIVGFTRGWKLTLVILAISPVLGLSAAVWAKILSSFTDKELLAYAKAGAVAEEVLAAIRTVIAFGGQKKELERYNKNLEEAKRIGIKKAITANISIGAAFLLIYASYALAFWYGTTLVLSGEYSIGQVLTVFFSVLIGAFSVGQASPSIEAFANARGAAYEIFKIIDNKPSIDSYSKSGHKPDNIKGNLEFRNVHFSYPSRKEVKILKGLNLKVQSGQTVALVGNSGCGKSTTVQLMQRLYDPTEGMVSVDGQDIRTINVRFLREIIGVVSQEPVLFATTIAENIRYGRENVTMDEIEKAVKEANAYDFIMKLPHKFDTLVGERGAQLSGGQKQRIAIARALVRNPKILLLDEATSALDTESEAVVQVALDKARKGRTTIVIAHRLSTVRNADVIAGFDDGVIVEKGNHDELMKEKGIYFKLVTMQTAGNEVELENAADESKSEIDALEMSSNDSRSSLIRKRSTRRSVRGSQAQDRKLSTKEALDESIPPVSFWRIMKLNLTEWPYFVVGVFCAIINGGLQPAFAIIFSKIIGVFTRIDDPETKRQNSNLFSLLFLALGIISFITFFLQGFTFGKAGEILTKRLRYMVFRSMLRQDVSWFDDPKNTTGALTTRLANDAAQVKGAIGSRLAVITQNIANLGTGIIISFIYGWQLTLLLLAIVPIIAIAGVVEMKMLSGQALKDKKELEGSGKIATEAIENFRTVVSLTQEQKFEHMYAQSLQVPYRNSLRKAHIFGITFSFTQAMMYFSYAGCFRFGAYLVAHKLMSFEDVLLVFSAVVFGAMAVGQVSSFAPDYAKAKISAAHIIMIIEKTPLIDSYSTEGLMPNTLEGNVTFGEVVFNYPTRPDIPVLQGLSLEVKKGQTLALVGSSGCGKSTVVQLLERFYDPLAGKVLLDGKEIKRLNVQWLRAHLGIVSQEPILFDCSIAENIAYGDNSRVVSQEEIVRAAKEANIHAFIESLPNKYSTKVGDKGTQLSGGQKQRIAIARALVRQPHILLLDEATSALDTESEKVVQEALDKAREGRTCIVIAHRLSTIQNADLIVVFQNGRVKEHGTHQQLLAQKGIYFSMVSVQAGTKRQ
- experiment_notes: MDR1-MDCK permeability and efflux assay (Papp, efflux ratio, effective efflux ratio)
- Format: in vitro ADME
- test_settings: dog, MDCK-MDR1, pH 7.4, Papp B>A/Papp A>B, MDR1-MDCK cells; read-out: ER MDR1 (Efflux Ratio)
measured_quantity: efflux ratio at 1 h, 10 μM

Example results:
CC1COc2cc(F)ccc2N1C(=O)N1CC2(C1)CN(c1cc(C#N)ccn1)C2 (single isomer, unassigned) [20-3-B] :: 1 to 2
O=C(N1CC2(C1)CN(c1ccc(F)cn1)C2)N1CCC(F)(F)c2cc(Cl)ccc21 [17-1] :: < 1
CC1COc2cc(Cl)ccc2N1C(=O)N1CC2(C1)CN(c1noc3cccnc13)C2 (centres unmarked) [18-3] :: < 1
Cc1cncc(N2CC3(CN(C(=O)N4c5ccc(F)cc5OCC4C)C3)C2)n1 (single isomer, unassigned) [20-2-A] :: 1 to 2

Prompt line: Tell me the measured efflux ratio at 1 h, 10 μM of Cc1nccnc1N1CC2(CN(C(=O)N3c4ccc(Cl)cc4OCC3C)C2)C1 (single isomer, unassigned) [20-10-A] , please.
Response line: 1 to 2

Prompt line: Tell me the measured efflux ratio at 1 h, 10 μM of O=C(N1CC2(C1)CN(c1cnccn1)C2)N1CCc2cc(Cl)ccc21 [8-14] , please.
Response line: 1 to 2

Prompt line: Tell me the measured efflux ratio at 1 h, 10 μM of COc1ccnc(N2CC3(CN(C(=O)N4c5ccc(Cl)cc5OCC4C)C3)C2)n1 (centres unmarked) [20-9] , please.
Response line: < 1

Prompt line: Tell me the measured efflux ratio at 1 h, 10 μM of CC1COc2cc(Cl)c(F)cc2N1C(=O)N1CC2(C1)CN(c1cccnn1)C2 (single isomer, unassigned) [19-4-A] , please.
Response line: 2 to 3

Prompt line: Tell me the measured efflux ratio at 1 h, 10 μM of CC1COc2cc(Cl)ccc2N1C(=O)N1CC2(C1)CN(c1ncc(F)cn1)C2 (single isomer, unassigned) [18-2-B] , please.
Response line: < 1

Prompt line: Tell me the measured efflux ratio at 1 h, 10 μM of CC1COc2cc(Cl)ccc2N1C(=O)N1CC2(C1)CN(c1cc(C#N)ccn1)C2 (single isomer, unassigned) [20-6-A] , please.
Response line: < 1

Prompt line: Tell me the measured efflux ratio at 1 h, 10 μM of O=C(N1CC2(C1)CN(c1cccnc1)C2)N1CCOc2cc(Cl)ccc21 [1-72] , please.
Response line: < 1
